List of self-cleavage values.
B1: LINE1-full (parent)
chain: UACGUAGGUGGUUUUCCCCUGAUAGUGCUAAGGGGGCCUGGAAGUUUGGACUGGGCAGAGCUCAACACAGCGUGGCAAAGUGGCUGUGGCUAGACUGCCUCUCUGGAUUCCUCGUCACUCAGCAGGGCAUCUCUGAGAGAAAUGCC

variants of: B1; assay: self-cleavage, relative activity (ratio to wild type); higher = more cleavage; in vitro, sequencing; the parent is a self-cleaving ribozyme

Variant key: U20G A67U
self-cleavage: 0.11
--
Variant key: U20A U62C
self-cleavage: 0.06
--
Variant key: G93U U102C
self-cleavage: 0.04
--
Variant key: A22U G72A
self-cleavage: 1.27
--
Variant key: U62C U102A
self-cleavage: 0.04
--
Variant key: C37G U52C
self-cleavage: 0.75
--
Variant key: C3U A121U
self-cleavage: 1.41
--
Variant key: A57U A94U
self-cleavage: 0.04
--
Variant key: C84G A140G
self-cleavage: 0.12
--
Variant key: U12C U26A
self-cleavage: 1.03
--
Variant key: G60U U100A
self-cleavage: 0.02
--
Variant key: A69G U100C
self-cleavage: 0.98
--
Variant key: G40A A64U
self-cleavage: 0.38
--
Variant key: U115C G126A
self-cleavage: 1.85
--
Variant key: U45C G54U
self-cleavage: 0.11
--
Variant key: A69U A124G
self-cleavage: 0.05
--
Variant key: U12C G36C
self-cleavage: 0.95
--
Variant key: U73A A77G
self-cleavage: 2.29
--
Variant key: U87A U112C
self-cleavage: 0.07
--
Variant key: G40A A124G
self-cleavage: 0.52
--
Variant key: A57G A107G
self-cleavage: 1.01
--
Variant key: A92C U104A
self-cleavage: 0.38
--
Variant key: U85A U104A
self-cleavage: 0.03
--
Variant key: A136U A142G
self-cleavage: 1.52
--
Variant key: U23A A136U
self-cleavage: 1.7
--
Variant key: U47A U100G
self-cleavage: 1.93
--
Variant key: U20C C123A
self-cleavage: 1.34
--
Variant key: U47A A124G
self-cleavage: 0.79
--
Variant key: G49A U115C
self-cleavage: 1.33
--
Variant key: G4A G11A
self-cleavage: 0.58
--
Variant key: A129C
self-cleavage: 1.67
--
Variant key: U45C A138U
self-cleavage: 1.48
--
Variant key: U12G A67G
self-cleavage: 0.53
--
Variant key: U39A A78G
self-cleavage: 1.38
--
Variant key: A30C
self-cleavage: 1.27
--
Variant key: A31G U112A
self-cleavage: 1.61
--
Variant key: A31U U143A
self-cleavage: 0.78
--
Variant key: A94U A140G
self-cleavage: 0.23
--
Variant key: G35A A77G
self-cleavage: 1.92
--
Variant key: U14C U15C
self-cleavage: 1.27
--
Variant key: G74A A121G
self-cleavage: 1.43
--
Variant key: A57U U104C
self-cleavage: 0.15
--
Variant key: A31U A79G
self-cleavage: 0.55
--
Variant key: A50G U96C
self-cleavage: 0.1
--
Variant key: G33C U62C
self-cleavage: 0.1
--
Variant key: C38U U46A
self-cleavage: 1.28
